Test system: S. cerevisiae expressing PfHSP40, growth rescue, plate reader
assay.name: Yeast growth rescue from Plasmodium falciparum HSP40 toxicity, dose response confirmatory, plate reader (AID 540271);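 also: yeast growth read after three days of incubation at 30 °C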
observable: AC50

[Q] Please state recorded AC50 (tested on S. cerevisiae expressing PfHSP40, growth rescue, plate reader) of CCOC(=O)c1ccc(-c2ccc(C3Nc4ccccc4C(=O)N3O)o2)cc1 (centres undefined)
[A] 3.91 µM

[Q] Please state recorded AC50 (tested on S. cerevisiae expressing PfHSP40, growth rescue, plate reader) of `O=C1/C(=C/c2cccs2)SC(=S)N1NS(=O)(=O)c1ccccc1`
[A] 3.9 µM

[Q] Please state recorded AC50 (tested on S. cerevisiae expressing PfHSP40, growth rescue, plate reader) of `CCOC(=O)c1c2c(n(-c3ccc(OC)cc3)c1C)C(=O)C(=O)c1ccccc1-2`
[A] 3.97 µM

[Q] Please state recorded AC50 (tested on S. cerevisiae expressing PfHSP40, growth rescue, plate reader) of `CC/C(=N/NC(=O)c1ccccc1O)c1c(C)[nH]n(-c2ccccc2)c1=O`
[A] 0.705 µM

[Q] Please state recorded AC50 (tested on S. cerevisiae expressing PfHSP40, growth rescue, plate reader) of `CC(=O)Oc1ccc(OC(C)=O)c(SCCCCCCl)c1`
[A] 7.6 µM

[Q] Please state recorded AC50 (tested on S. cerevisiae expressing PfHSP40, growth rescue, plate reader) of CCCC(=O)NC(c1ccccc1OC)c1ccc2cccnc2c1O (centres undefined)
[A] 1.7 µM

[Q] Please state recorded AC50 (tested on S. cerevisiae expressing PfHSP40, growth rescue, plate reader) of `COc1ccc(C(=O)On2c(-c3ccc(Br)cc3)nc3ccccc3c2=O)cc1`
[A] 4.13 µM

[Q] Please state recorded AC50 (tested on S. cerevisiae expressing PfHSP40, growth rescue, plate reader) of `CCCOc1ccc2ccccc2c1/C=C1\SC(=O)NC1=O`
[A] 5.65 µM

[Q] Please state recorded AC50 (tested on S. cerevisiae expressing PfHSP40, growth rescue, plate reader) of `Cc1nnc(N=c2ssnc2Cl)o1`
[A] 3.22 µM

[Q] Please state recorded AC50 (tested on S. cerevisiae expressing PfHSP40, growth rescue, plate reader) of `COc1ccc(N(C)S(=O)(=O)c2ccc(Cl)c(C(=O)NNC(=O)c3ccccc3O)c2)cc1`
[A] 2.52 µM

[Q] Please state recorded AC50 (tested on S. cerevisiae expressing PfHSP40, growth rescue, plate reader) of `COc1ccc(NC(=O)/C(Cl)=C(/Cl)S(=O)(=O)Cc2ccc(C)cc2)cn1`
[A] 4.67 µM

[Q] Please state recorded AC50 (tested on S. cerevisiae expressing PfHSP40, growth rescue, plate reader) of `COc1ccc(C(=O)NC(=S)NNC(=O)CCc2ccccc2)cc1`
[A] 5.29 µM

[Q] Please state recorded AC50 (tested on S. cerevisiae expressing PfHSP40, growth rescue, plate reader) of `C(=C1c2ccccc2-c2ccccc21)c1ccncc1`
[A] 6.18 µM

[Q] Please state recorded AC50 (tested on S. cerevisiae expressing PfHSP40, growth rescue, plate reader) of `COc1cccc(C(=O)Nc2sc(C(C)C)cc2C(N)=O)c1OC`
[A] 5.46 µM

[Q] Please state recorded AC50 (tested on S. cerevisiae expressing PfHSP40, growth rescue, plate reader) of `Cc1ccc(Cl)cc1NC1=C/C(=N\S(=O)(=O)c2cccs2)c2ccccc2C1=O`
[A] 6.42 µM

[Q] Please state recorded AC50 (tested on S. cerevisiae expressing PfHSP40, growth rescue, plate reader) of `COc1cc2c(c(OC)c1OC)-c1ccc(O)c(=O)cc1[C@@H](N)CC2`
[A] 2.52 µM

[Q] Please state recorded AC50 (tested on S. cerevisiae expressing PfHSP40, growth rescue, plate reader) of `CNc1cc(CSC)nc(SCc2ccc(Cl)cc2Cl)n1`
[A] 4.18 µM

[Q] Please state recorded AC50 (tested on S. cerevisiae expressing PfHSP40, growth rescue, plate reader) of `Nc1nonc1C(=O)NCCN=Cc1cc(Cc2ccccc2)cc(Br)c1O`
[A] 0.642 µM

[Q] Please state recorded AC50 (tested on S. cerevisiae expressing PfHSP40, growth rescue, plate reader) of `Oc1ccc(Cl)cc1CNc1cccc2cccnc12`
[A] 6.73 µM

[Q] Please state recorded AC50 (tested on S. cerevisiae expressing PfHSP40, growth rescue, plate reader) of `COc1ccc2oc(=O)c(-c3csc(Nc4cccc(O)c4)n3)cc2c1`
[A] 4.91 µM

[Q] Please state recorded AC50 (tested on S. cerevisiae expressing PfHSP40, growth rescue, plate reader) of `Cc1ccc(O)c(-c2cc(-c3ccccc3C)[nH]n2)c1`
[A] 5.42 µM

[Q] Please state recorded AC50 (tested on S. cerevisiae expressing PfHSP40, growth rescue, plate reader) of CC(C)(C)C(=O)C(Cl)C(=O)Nc1ccccc1 (centres undefined)
[A] 5.65 µM

[Q] Please state recorded AC50 (tested on S. cerevisiae expressing PfHSP40, growth rescue, plate reader) of `O=C(CSc1ccc(-c2ccccn2)nn1)N1CCCc2ccccc21`
[A] 3.52 µM

[Q] Please state recorded AC50 (tested on S. cerevisiae expressing PfHSP40, growth rescue, plate reader) of `Cc1ccc(C)c(/C=C/C(=O)c2ccccc(=O)c2O)c1`
[A] 3.17 µM

[Q] Please state recorded AC50 (tested on S. cerevisiae expressing PfHSP40, growth rescue, plate reader) of CCCCC(=O)NC(c1ccco1)c1cc(Cl)c2cccnc2c1O (centres undefined)
[A] 2 µM

[Q] Please state recorded AC50 (tested on S. cerevisiae expressing PfHSP40, growth rescue, plate reader) of `Cc1ccc(-c2cc(-c3ccc(C)cc3)[n+](-c3ccccc3)c(-c3ccc(C)cc3)c2)cc1`
[A] 5.4 µM

[Q] Please state recorded AC50 (tested on S. cerevisiae expressing PfHSP40, growth rescue, plate reader) of `[O-][n+]1cccc2c(Br)cc(Br)c(O)c21`
[A] 2.69 µM

[Q] Please state recorded AC50 (tested on S. cerevisiae expressing PfHSP40, growth rescue, plate reader) of `CC(=O)Nc1cccc(-c2cc(-c3c(Cl)cccc3Cl)no2)c1`
[A] 3.12 µM

[Q] Please state recorded AC50 (tested on S. cerevisiae expressing PfHSP40, growth rescue, plate reader) of `CCOC(=O)c1c(C)oc2c1C(=O)c1ccccc1C2=O`
[A] 6.76 µM

[Q] Please state recorded AC50 (tested on S. cerevisiae expressing PfHSP40, growth rescue, plate reader) of `CN(C(=O)COC(=O)c1ccc([N+](=O)[O-])cc1Cl)C1CCCCC1`
[A] 9.99 µM

[Q] Please state recorded AC50 (tested on S. cerevisiae expressing PfHSP40, growth rescue, plate reader) of `CNc1ccc2oc(C[C@H]3O[C@@]4(CC[C@H]3C)O[C@H]([C@H](C)C(=O)c3ccc[nH]3)[C@H](C)C[C@H]4C)nc2c1C(=O)O`
[A] 0.662 µM

[Q] Please state recorded AC50 (tested on S. cerevisiae expressing PfHSP40, growth rescue, plate reader) of `Cc1ccc(Sc2cc(C)nc(-c3ccccn3)n2)cc1`
[A] 3.51 µM

[Q] Please state recorded AC50 (tested on S. cerevisiae expressing PfHSP40, growth rescue, plate reader) of `O=C(O)c1ccccc1NS(=O)(=O)c1cccc(-n2sc3ccccc3c2=O)c1`
[A] 4.78 µM

[Q] Please state recorded AC50 (tested on S. cerevisiae expressing PfHSP40, growth rescue, plate reader) of `COc1ccc2c(c1)OC[C@H]1[C@H]2N2C(=O)c3cc(C)ccc3NC(=O)[C@@]2(C)[C@H]1c1ccccc1`
[A] 6.11 µM

[Q] Please state recorded AC50 (tested on S. cerevisiae expressing PfHSP40, growth rescue, plate reader) of `CNC(=S)Nc1ccc(C23CC4CC(CC(C4)C2)C3)cc1`
[A] 7.25 µM

[Q] Please state recorded AC50 (tested on S. cerevisiae expressing PfHSP40, growth rescue, plate reader) of `COc1ccc(N(C(=O)c2ccncc2)S(=O)(=O)c2ccccc2)cc1`
[A] 2.4 µM

[Q] Please state recorded AC50 (tested on S. cerevisiae expressing PfHSP40, growth rescue, plate reader) of `Cc1nn2c(-c3ccncc3)nnc2c2ccccc12`
[A] 7.28 µM

[Q] Please state recorded AC50 (tested on S. cerevisiae expressing PfHSP40, growth rescue, plate reader) of `O=C(Nc1cccc(-c2nc3ccccc3s2)c1)c1cccs1`
[A] 5.98 µM

[Q] Please state recorded AC50 (tested on S. cerevisiae expressing PfHSP40, growth rescue, plate reader) of `CC(C)CN=Cc1c(O)c([N+](=O)[O-])cc2oc3c(c12)CCCC3`
[A] 1.33 µM

[Q] Please state recorded AC50 (tested on S. cerevisiae expressing PfHSP40, growth rescue, plate reader) of CCCCC(CC)c1nnc(NC(=O)c2cccs2)s1 (centres undefined)
[A] 6.66 µM

[Q] Please state recorded AC50 (tested on S. cerevisiae expressing PfHSP40, growth rescue, plate reader) of C=C1C(=O)C23CCC4C(C)(C(=O)OC)CCCC4(C)C2CCC1(O)C3 (centres undefined)
[A] 11.6 µM

[Q] Please state recorded AC50 (tested on S. cerevisiae expressing PfHSP40, growth rescue, plate reader) of `Cc1cc(/C=N/n2cnnc2)c(C)n1-c1ccc(OCc2ccc(F)cc2)cc1`
[A] 4.69 µM

[Q] Please state recorded AC50 (tested on S. cerevisiae expressing PfHSP40, growth rescue, plate reader) of `COc1nc(NC23CC4CC(CC(C4)C2)C3)nc(OC)n1`
[A] 10.9 µM

[Q] Please state recorded AC50 (tested on S. cerevisiae expressing PfHSP40, growth rescue, plate reader) of `Cc1cc(C)c(OCC(=O)Nc2nc(-c3ccccn3)cs2)c(C)c1`
[A] 4.34 µM
